These entries and their values trace back to ChEMBL document CHEMBL5291721.

# Lookup of reported AC50 keyed by entry
# measurement_target: UniProtKB P21731
# Sequence (P21731 whole entry): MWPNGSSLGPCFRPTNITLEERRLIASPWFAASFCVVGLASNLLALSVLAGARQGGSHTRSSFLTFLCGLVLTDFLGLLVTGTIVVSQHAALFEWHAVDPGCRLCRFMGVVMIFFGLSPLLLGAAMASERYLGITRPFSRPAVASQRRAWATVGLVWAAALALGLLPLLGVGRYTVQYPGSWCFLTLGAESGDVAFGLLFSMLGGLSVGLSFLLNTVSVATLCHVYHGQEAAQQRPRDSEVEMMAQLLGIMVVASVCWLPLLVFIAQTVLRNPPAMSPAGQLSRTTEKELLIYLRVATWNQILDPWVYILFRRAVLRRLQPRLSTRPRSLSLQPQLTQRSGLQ
# Type: functional, cell-based

Example entries begin here.
1. C[N+]1(C)CCCC(OC(=O)C(O)(c2ccccc2)c2ccccc2)C1 (stereo not drawn) [MEPENZOLATE]    > 30 µM
2. C=C1CC[C@H](O)C/C1=C/C=C1\CCC[C@]2(C)[C@@H]([C@H](C)CCCC(C)C)CC[C@@H]12    22.4 µM
3. CC(C(=O)O)c1cccc(Oc2ccccc2)c1 (stereo not drawn)    > 30 µM
4. Cc1ccc(C(=O)C(C)CN2CCCCC2)cc1 (stereo not drawn)    > 30 µM
5. O=C(CCC/C=C\C[C@@H]1[C@@H](CC[C@@H](O)CCc2ccccc2)[C@H](O)C[C@@H]1O)OCCCCO[N+](=O)[O-]    > 10 µM

Memo: CC(=O)NCCCCCC(=O)O , reported AC50: > 30 µM

Memo: O=C(O)c1ccccc1 , reported AC50: > 30 µM

Memo: COC(=O)[C@H]1[C@H]2C[C@@H]3c4[nH]c5cc(OC)ccc5c4CCN3C[C@H]2C[C@@H](OC(=O)c2cc(OC)c(OC)c(OC)c2)[C@@H]1OC , reported AC50: > 30 µM

====

System: Glucocorticoid receptor (Homo sapiens) | Read-out: AC50; further: assay procedure not described here
Sequence (P04150 whole entry): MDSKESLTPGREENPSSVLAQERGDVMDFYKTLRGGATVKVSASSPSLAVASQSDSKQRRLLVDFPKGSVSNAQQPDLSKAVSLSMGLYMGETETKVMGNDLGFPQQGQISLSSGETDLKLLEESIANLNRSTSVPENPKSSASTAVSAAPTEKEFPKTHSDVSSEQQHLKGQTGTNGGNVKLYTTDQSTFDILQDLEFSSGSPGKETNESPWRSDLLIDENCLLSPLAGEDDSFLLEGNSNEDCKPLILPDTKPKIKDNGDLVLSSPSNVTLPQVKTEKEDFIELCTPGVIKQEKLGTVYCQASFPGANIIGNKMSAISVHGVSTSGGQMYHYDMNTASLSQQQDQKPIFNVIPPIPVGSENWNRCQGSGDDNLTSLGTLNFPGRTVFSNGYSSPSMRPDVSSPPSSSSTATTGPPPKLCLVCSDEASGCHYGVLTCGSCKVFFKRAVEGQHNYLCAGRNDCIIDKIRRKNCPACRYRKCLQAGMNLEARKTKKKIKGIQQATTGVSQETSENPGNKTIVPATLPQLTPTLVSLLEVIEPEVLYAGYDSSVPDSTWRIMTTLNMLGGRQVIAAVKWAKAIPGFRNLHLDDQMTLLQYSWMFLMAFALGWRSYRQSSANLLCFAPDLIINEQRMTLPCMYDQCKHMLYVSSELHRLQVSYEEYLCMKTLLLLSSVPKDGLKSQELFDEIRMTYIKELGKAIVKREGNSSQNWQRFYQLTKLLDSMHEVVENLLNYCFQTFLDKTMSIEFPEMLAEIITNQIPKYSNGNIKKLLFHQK

1) COc1ccc(CN2CCN(C(c3ccc(F)cc3)c3ccc(F)cc3)CC2)c(OC)c1OC    > 30 µM
2) CO/N=C(\C(=O)N[C@@H]1C(=O)N2C(C(=O)O)=CCS[C@H]12)c1csc(N)n1    > 30 µM
3) CC1(C)S[C@@H]2[C@H](NC(=O)C(C(=O)O)c3ccccc3)C(=O)N2[C@H]1C(=O)O (stereo not given in full)    > 30 µM
4) CC(C)(C)NCC(O)c1ccccc1Cl (stereo not given)    > 30 µM

Now consider a different compound.
Value sought: AC50, system Glucocorticoid receptor (Homo sapiens), item CC(C)C[C@H](NC(=O)[C@@H](O)[C@H](N)Cc1ccccc1)C(=O)O . Result: 20 µM

====

# measurement_target: Voltage-gated inwardly rectifying potassium channel KCNH2 (Homo sapiens, UniProt Q12809); further: assay procedure not described here
# Sequence (Q12809 whole entry): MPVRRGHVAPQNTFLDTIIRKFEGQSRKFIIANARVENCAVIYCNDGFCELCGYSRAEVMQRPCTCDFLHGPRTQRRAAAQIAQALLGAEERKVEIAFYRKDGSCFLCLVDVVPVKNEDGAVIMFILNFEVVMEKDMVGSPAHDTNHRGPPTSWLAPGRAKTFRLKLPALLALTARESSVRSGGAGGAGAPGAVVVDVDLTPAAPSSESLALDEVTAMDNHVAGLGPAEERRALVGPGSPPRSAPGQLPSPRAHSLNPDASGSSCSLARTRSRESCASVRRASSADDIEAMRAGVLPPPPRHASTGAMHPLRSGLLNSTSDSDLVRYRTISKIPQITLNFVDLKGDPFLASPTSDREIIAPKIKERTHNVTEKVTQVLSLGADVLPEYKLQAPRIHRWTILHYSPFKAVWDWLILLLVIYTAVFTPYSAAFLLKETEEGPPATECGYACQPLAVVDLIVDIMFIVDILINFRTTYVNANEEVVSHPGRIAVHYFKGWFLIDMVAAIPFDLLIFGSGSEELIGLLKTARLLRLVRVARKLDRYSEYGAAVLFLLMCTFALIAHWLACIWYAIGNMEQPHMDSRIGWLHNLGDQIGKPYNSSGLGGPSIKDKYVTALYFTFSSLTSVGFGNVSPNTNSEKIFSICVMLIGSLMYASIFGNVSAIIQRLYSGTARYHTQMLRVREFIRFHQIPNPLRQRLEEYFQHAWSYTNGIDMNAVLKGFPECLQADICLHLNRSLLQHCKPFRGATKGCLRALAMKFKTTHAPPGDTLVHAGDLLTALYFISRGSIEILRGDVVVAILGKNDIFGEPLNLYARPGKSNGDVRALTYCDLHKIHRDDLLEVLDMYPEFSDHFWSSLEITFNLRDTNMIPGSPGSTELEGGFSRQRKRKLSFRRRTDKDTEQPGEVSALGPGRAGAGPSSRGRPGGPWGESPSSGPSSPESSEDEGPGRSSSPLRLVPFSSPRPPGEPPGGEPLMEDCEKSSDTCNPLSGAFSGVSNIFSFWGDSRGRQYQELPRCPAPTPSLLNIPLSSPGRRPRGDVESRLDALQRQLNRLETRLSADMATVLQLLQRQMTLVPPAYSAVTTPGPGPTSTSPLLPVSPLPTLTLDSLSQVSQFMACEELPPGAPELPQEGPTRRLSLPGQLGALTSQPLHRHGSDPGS
# Assay type: functional
outcome_measure: AC50

1) CC(C)(C)NCC(O)c1ccccc1Cl (centres undefined) [TULOBUTEROL]    > 30 µM

Memo: O=C(NNCS(=O)(=O)O)c1ccncc1 [METHANIAZIDE] , reported AC50: > 30 µM

Memo: CCc1nc(N)nc(N)c1-c1ccc(Cl)cc1 [PYRIMETHAMINE] , reported AC50: 0.649 µM

Memo: Cc1cc(=O)oc2cc(O)ccc12 [HYMECROMONE] , reported AC50: > 30 µM
